Biological target: DNA polymerase eta (Homo sapiens) (UniProt Q9Y253)
Sequence (Q9Y253 whole entry, looked up): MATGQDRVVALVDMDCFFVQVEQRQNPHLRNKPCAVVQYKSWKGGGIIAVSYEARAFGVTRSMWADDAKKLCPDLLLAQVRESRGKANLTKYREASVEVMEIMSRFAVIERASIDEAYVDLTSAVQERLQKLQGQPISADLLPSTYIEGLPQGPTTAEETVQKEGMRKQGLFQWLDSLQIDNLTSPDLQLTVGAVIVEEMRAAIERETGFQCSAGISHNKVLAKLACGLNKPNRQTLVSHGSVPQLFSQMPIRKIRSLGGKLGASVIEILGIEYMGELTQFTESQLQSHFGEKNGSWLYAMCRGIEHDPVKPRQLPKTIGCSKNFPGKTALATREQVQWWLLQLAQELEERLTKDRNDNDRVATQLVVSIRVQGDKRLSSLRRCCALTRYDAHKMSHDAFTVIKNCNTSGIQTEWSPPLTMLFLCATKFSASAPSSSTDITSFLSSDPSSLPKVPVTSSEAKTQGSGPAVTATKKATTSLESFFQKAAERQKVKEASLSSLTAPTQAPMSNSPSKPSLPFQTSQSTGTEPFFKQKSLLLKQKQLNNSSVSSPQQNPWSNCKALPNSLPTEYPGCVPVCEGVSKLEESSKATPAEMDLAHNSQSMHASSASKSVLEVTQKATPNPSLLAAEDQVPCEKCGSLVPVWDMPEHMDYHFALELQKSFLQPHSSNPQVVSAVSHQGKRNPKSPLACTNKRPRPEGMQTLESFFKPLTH
Assay: qHTS for Inhibitors of Polymerase Eta: Confirmatory Assay for Cherry-picked Compounds (AID 720502); also: potency is read from the fitted curve at half-maximal effect
Conditions: Pol eta primer extension, TAMRA/BHQ fluorescence, 10 min
The list shows a part of the results. Results filed as inconclusive are left out. Active and inactive are the calls of the source. Calls follow the shape of the dose curve; as a rule, active = well fitted inhibition curve with a large enough effect; inconclusive = small, poorly fitted or top-dose-only effect, or another doubt; inactive = no such curve, though single readings can be large or run the other way.
Catalogue of Potency values
measured_quantity: Potency

>  <molecule>
COc1ccc(Cc2nnc(NC(=O)Cc3cccs3)s2)cc1

>  <tested_system>
DNA polymerase eta (Homo sapiens) (UniProt Q9Y253)

>  <measured_quantity>
Potency

>  <result>
19 µM (active)

$$$$
>  <molecule>
COc1ccc(Cl)cc1NC(=O)CCS(=O)(=O)c1ccc(Br)cc1

>  <tested_system>
DNA polymerase eta (Homo sapiens) (UniProt Q9Y253)

>  <measured_quantity>
Potency

>  <result>
16.9 µM (active)

$$$$
>  <molecule>
NC(=O)CSc1nnc(NC(=O)c2ccc(Br)o2)s1

>  <tested_system>
DNA polymerase eta (Homo sapiens) (UniProt Q9Y253)

>  <measured_quantity>
Potency

>  <result>
26.9 µM (active)

$$$$
>  <molecule>
O=C(COC(=O)CCC(=O)c1cccs1)NCc1ccco1

>  <tested_system>
DNA polymerase eta (Homo sapiens) (UniProt Q9Y253)

>  <measured_quantity>
Potency

>  <result>
75.7 µM (active)

$$$$
>  <molecule>
O=C1NN(c2ccccc2)C(=O)/C1=C/c1ccc(-c2cccc(C(=O)O)c2)o1

>  <tested_system>
DNA polymerase eta (Homo sapiens) (UniProt Q9Y253)

>  <measured_quantity>
Potency

>  <result>
30.1 µM (active)

$$$$
>  <molecule>
CCc1nc2cccnc2n1-c1ccc(C(=O)O)cc1

>  <tested_system>
DNA polymerase eta (Homo sapiens) (UniProt Q9Y253)

>  <measured_quantity>
Potency

>  <result>
10.7 µM (active)

$$$$
>  <molecule>
NC(CSC(c1ccccc1)(c1ccccc1)c1ccc(-c2ccccc2)cc1)C(=O)O (stereo not given)

>  <tested_system>
DNA polymerase eta (Homo sapiens) (UniProt Q9Y253)

>  <measured_quantity>
Potency

>  <result>
75.7 µM (active)

$$$$
>  <molecule>
COc1ccc2[nH]c3c(C)c4cc[n+](C)cc4c(C)c3c2c1

>  <tested_system>
DNA polymerase eta (Homo sapiens) (UniProt Q9Y253)

>  <measured_quantity>
Potency

>  <result>
9.53 µM (active)

$$$$
>  <molecule>
O=C(Cc1ccc(S(=O)(=O)N2CCCC2)s1)NC1CCCCCC1

>  <tested_system>
DNA polymerase eta (Homo sapiens) (UniProt Q9Y253)

>  <measured_quantity>
Potency

>  <result>
60.1 µM (active)

$$$$
>  <molecule>
CN1CCN(CCCNC(=O)c2ccc(/C=C3\Oc4ccccc4N(Cc4ccc(Cl)cc4)C3=O)cc2)CC1

>  <tested_system>
DNA polymerase eta (Homo sapiens) (UniProt Q9Y253)

>  <measured_quantity>
Potency

>  <result>
19 µM (active)

$$$$

---

Molecular target: Cytochrome P450 2C9 (Homo sapiens) (UniProt P11712)
Sequence (P11712 whole entry, looked up): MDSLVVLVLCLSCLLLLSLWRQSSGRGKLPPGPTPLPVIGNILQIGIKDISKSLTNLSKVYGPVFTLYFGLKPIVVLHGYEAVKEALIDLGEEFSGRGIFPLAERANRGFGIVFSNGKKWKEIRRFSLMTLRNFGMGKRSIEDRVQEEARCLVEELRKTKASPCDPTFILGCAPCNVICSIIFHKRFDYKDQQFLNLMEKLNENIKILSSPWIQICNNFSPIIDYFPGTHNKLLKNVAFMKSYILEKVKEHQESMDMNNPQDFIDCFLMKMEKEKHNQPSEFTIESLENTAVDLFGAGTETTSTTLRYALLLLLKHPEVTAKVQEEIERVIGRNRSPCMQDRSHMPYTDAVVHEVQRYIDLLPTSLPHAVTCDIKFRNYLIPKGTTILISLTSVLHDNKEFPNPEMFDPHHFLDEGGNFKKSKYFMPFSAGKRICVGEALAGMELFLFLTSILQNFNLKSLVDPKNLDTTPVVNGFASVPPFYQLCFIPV
Test: qHTS Assay for Inhibitors and Substrates of Cytochrome P450 2C9 (AID 883); also: % is scaled to controls: 0 for no effect and ±100 for the full control effect; nearly all actives have a fitted effect of over 60% in size
Details: recombinant CYP2C9, luciferin-H luminescence, 60 min; series mostly up to 11.4 µM
Results filed as inconclusive are left out. Active and inactive are the calls of the source. Calls come from the whole dose curve; as a rule, active = well fitted inhibition curve with a large enough effect; inconclusive = small, poorly fitted or top-dose-only effect; inactive = no such curve, though single readings can be large or run the other way.
measured_quantity: outcome

>  <compound>
O=C(/C=N/O)NCCCCNC(=O)/C=N/O

>  <tested_system>
Cytochrome P450 2C9 (Homo sapiens) (UniProt P11712)

>  <result>
inactive

$$$$
>  <compound>
O=C1C=CC2(OCCCO2)C(Br)=C1

>  <tested_system>
Cytochrome P450 2C9 (Homo sapiens) (UniProt P11712)

>  <result>
inactive

$$$$
>  <compound>
OCC1OC(c2ccc3c(c2)OCO3)C=CC1Oc1ccc(C2CCCC2)cc1 (stereo not drawn)

>  <tested_system>
Cytochrome P450 2C9 (Homo sapiens) (UniProt P11712)

>  <result>
inactive

$$$$

---

Listed molecules paired with reported activity change, positive = activation
Molecular target: Cytochrome P450 3A4 (Homo sapiens) (UniProt P08684)
Sequence (P08684 whole entry, looked up): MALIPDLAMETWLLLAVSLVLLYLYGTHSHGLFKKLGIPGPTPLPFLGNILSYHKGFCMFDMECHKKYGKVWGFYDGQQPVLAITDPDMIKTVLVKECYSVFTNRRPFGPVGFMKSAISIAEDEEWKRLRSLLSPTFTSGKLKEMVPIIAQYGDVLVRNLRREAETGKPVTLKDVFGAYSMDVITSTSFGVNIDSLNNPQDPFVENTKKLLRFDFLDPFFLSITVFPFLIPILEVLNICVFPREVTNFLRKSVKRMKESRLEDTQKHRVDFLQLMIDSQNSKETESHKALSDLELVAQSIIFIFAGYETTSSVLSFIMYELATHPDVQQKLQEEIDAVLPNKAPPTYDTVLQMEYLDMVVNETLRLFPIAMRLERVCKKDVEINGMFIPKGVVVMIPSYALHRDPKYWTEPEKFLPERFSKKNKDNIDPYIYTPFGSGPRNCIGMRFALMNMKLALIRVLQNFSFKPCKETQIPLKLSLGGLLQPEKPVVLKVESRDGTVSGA
Test: qHTS Assay for Activators of Cytochrome P450 3A4 (AID 885); also: nearly all actives have a fitted effect of over 65% in size
Settings: recombinant CYP3A4, Luciferin-PPXE luminescence, 60 min; series mostly up to 57.1 µM
Active and inactive are the calls of the source. Calls come from the whole dose curve; as a rule, active = well fitted activation curve with a large enough effect; inconclusive = small, poorly fitted or top-dose-only effect; inactive = no such curve, though single readings can be large or run the other way.

>  <molecule>
COC(=O)C/C=C\[C@@H](C)[C@@H](/C=N\OC[C@@H]1O[C@H](c2ccccc2)C=C[C@@H]1Oc1ccc(OC)cc1)OC

>  <activity change, positive = activation>
-96.1% [at 11.4 µM] (inactive)

$$$$
>  <molecule>
CCN1C(C)=C(C(=O)OC)C(c2ccccc2)N2C(=O)[C@](O)(C(=O)OC)C(c3ccccc3)C(C(=O)c3ccccc3)=C12 (stereo partly drawn)

>  <activity change, positive = activation>
-65.7% [at 11.4 µM] (inactive)

$$$$

---

activity, percent of control reference
Test: qHTS profiling for inhibitors of Plasmodium falciparum (DD2) proliferation (AID 743323)
Details: lower = more inhibition; at 28.7 µM (top of the series)

>  <compound>
C[C@@H]1Cc2c([nH]c3cc(Cl)c(F)cc23)[C@]2(N1)C(=O)Nc1ccc(Cl)cc12

>  <activity, percent of control (%)>
0.0887

$$$$
>  <compound>
O=C([C@H](Cc1ccc(O[S+](=O)([O-])c2ccccn2)cc1)N[S+](=O)([O-])c1cccc2cnccc12)N1CCN(c2ccccc2)CC1

>  <activity, percent of control (%)>
2.47

$$$$
>  <compound>
CS(=O)(=O)c1ccc(-c2cnc(N)c(-c3ccc(C(F)(F)F)nc3)c2)cc1

>  <activity, percent of control (%)>
8.27

$$$$
>  <compound>
O=C1C(=O)c2ccccc2C(O)=C1C1CCCCC1

>  <activity, percent of control (%)>
4.15

$$$$
>  <compound>
CCOc1ccc(F)cc1C1(O)C(N)=Nc2ccc(Cl)cc21 (stereo not given)

>  <activity, percent of control (%)>
0.185

$$$$
>  <compound>
CC(C)(C)OC(=O)N[C@@H](Cc1ccc(O[S+](=O)([O-])c2cccc3cccnc23)cc1)C(=O)N1CCN(c2ccccc2)CC1

>  <activity, percent of control (%)>
-0.148

$$$$
>  <compound>
O=C([C@H](Cc1ccc(O[S+](=O)([O-])c2cccc3cccnc23)cc1)N[S+](=O)([O-])c1cccc2cnccc12)N1CCN(c2ccccc2)CC1

>  <activity, percent of control (%)>
1.4

$$$$
>  <compound>
O=C([C@@H](Cc1ccc(O[S+](=O)([O-])c2cccc3cccnc23)cc1)N[S+](=O)([O-])c1cccc2cccnc12)N1CCN(c2ccccc2)CC1

>  <activity, percent of control (%)>
3.45

$$$$
>  <compound>
CCCC[C@@H]1C[C@@H](C(=O)NC([C@H](C)Cl)[C@H]2O[C@H](S)[C@H](O)[C@@H](O)[C@@H]2O)N(C)C1 (stereo not given in full)

>  <activity, percent of control (%)>
33.1

$$$$
>  <compound>
Cc1nc2c(C#N)cccc2n1-c1ccc(C(=O)NC2CC2)s1

>  <activity, percent of control (%)>
1.69

$$$$

---

Molecular target: Cytochrome P450 3A4 (Homo sapiens) (UniProt P08684)
Experiment: qHTS Assay for Activators of Cytochrome P450 3A4 (AID 885); also: nearly all actives have a fitted effect of over 65% in size
Conditions: recombinant CYP3A4, Luciferin-PPXE luminescence, 60 min; series mostly up to 57.1 µM
Activity calls are given as the source filed them. Calls come from the whole dose curve; as a rule, active = well fitted activation curve with a large enough effect; inconclusive = small, poorly fitted or top-dose-only effect; inactive = no such curve, though single readings can be large or run the other way.
measured_quantity: activity change, positive = activation

>  <molecule>
COc1ccc(O[C@H]2C=C[C@@H](c3ccccc3)O[C@H]2COC(=O)CC/C(C)=N\O[C@@H](C)CN2CCCCc3nc(C)c(C)cc32)cc1

>  <tested_system>
Cytochrome P450 3A4 (Homo sapiens) (UniProt P08684)

>  <result>
-114% [at 11.4 µM] (inactive)

$$$$
>  <molecule>
CC(C)CC1(C(=O)NCCc2c[nH]c3ccccc23)C=CCN1C(=O)c1ccccc1 (configuration not stated)

>  <tested_system>
Cytochrome P450 3A4 (Homo sapiens) (UniProt P08684)

>  <result>
inactive

$$$$
>  <molecule>
Cc1cc(O)cc(=O)o1

>  <tested_system>
Cytochrome P450 3A4 (Homo sapiens) (UniProt P08684)

>  <result>
inactive

$$$$
>  <molecule>
CC1CCC2C(=O)N3C(CCC(C)[C@@H]3c3ccc(Br)cc3)C(=O)N2C1c1ccc(Br)cc1 (some centres not stated)

>  <tested_system>
Cytochrome P450 3A4 (Homo sapiens) (UniProt P08684)

>  <result>
-48.7% [at 11.4 µM] (inactive)

$$$$
>  <molecule>
COC(=O)c1ccc(C(NC(=O)OCc2ccccc2)/C(C)=C/[C@@H](C)C(=O)NCc2nn(-c3ccccc3)nc2C)cc1 (some centres not stated)

>  <tested_system>
Cytochrome P450 3A4 (Homo sapiens) (UniProt P08684)

>  <result>
inactive

$$$$
>  <molecule>
CCC1=C(OC(=O)N(CC)CC)N2C(=O)OC(=NCC(=O)OC)[C@]2(C)[C@H]2C1=CC[C@H]1C(=O)NC(=O)[C@H]12

>  <tested_system>
Cytochrome P450 3A4 (Homo sapiens) (UniProt P08684)

>  <result>
inactive

$$$$
>  <molecule>
C=CCC1C=CC(Oc2ccc(OC)cc2)C(COC(=O)c2ccc(Br)cc2)O1 (configuration not stated)

>  <tested_system>
Cytochrome P450 3A4 (Homo sapiens) (UniProt P08684)

>  <result>
-92.4% [at 11.4 µM] (inactive)

$$$$
>  <molecule>
COC(=O)[C@@H]1C[C@@H]2CC[C@@H](O)C[C@@H]2N1Cc1ccc(OC)cc1

>  <tested_system>
Cytochrome P450 3A4 (Homo sapiens) (UniProt P08684)

>  <result>
inactive

$$$$
>  <molecule>
CO[C@@H]1COC(=O)[C@@H](CCSC)NC(=O)C/C=C\[C@@H](C)COC(=O)CCC[C@H]1C

>  <tested_system>
Cytochrome P450 3A4 (Homo sapiens) (UniProt P08684)

>  <result>
-30.5% [at 11.4 µM] (inactive)

$$$$
>  <molecule>
CCCOc1ccc(Br)cc1-c1cc(-c2ccc(Cl)cc2)[nH]c1-c1ccncc1

>  <tested_system>
Cytochrome P450 3A4 (Homo sapiens) (UniProt P08684)

>  <result>
inactive

$$$$
>  <molecule>
CCCCCCN(C(=O)CCCCCN1C(=O)NC(c2ccc(-c3ccccc3)cc2)C(C(=O)OCc2ccccc2)=C1C)C(C)C(=O)NCCCC (configuration not stated)

>  <tested_system>
Cytochrome P450 3A4 (Homo sapiens) (UniProt P08684)

>  <result>
inactive

$$$$
>  <molecule>
COC(=O)[C@@]1(Cc2ccc(OC)cc2)[C@H]2c3cc(C(=O)N4CCCC4)n(CCCNc4ncc(C(F)(F)F)cc4Cl)c3C[C@H]2CN1C(=O)c1ccccc1

>  <tested_system>
Cytochrome P450 3A4 (Homo sapiens) (UniProt P08684)

>  <result>
inactive

$$$$
>  <molecule>
COC(=O)c1ccc(C(NC(=O)OCc2ccccc2)/C(=C/[C@@H](C)C(=O)NCCF)c2cccnc2)cc1 (some centres not stated)

>  <tested_system>
Cytochrome P450 3A4 (Homo sapiens) (UniProt P08684)

>  <result>
inactive

$$$$
>  <molecule>
CCCCCCN(C(=O)CCCCCN1C(=O)NC(c2ccc(Cl)cc2)C(C(=O)OCc2ccccc2)=C1C)C(C(=O)NCCCC)c1ccc(OCC(=O)OC)c(C(=O)OC)c1 (configuration not stated)

>  <tested_system>
Cytochrome P450 3A4 (Homo sapiens) (UniProt P08684)

>  <result>
inactive

$$$$
>  <molecule>
COC(=O)c1ccc(C(NC(=O)OCc2ccccc2)/C(=C/[C@@H](C)C(=O)NCc2ccc(S(C)(=O)=O)cc2)c2cccnc2)cc1 (some centres not stated)

>  <tested_system>
Cytochrome P450 3A4 (Homo sapiens) (UniProt P08684)

>  <result>
inactive

$$$$
>  <molecule>
CCC(=O)O[C@H]1C(O[C@@H]2C(C)[C@H](O[C@H]3C[C@@](C)(OC)C(O)C(C)O3)C(C)C(=O)OC(CC)[C@@](C)(O)C(O)[C@H](C)C(=O)C(C)C[C@]2(C)O)OC(C)CC1N(C)C (some centres not stated)

>  <tested_system>
Cytochrome P450 3A4 (Homo sapiens) (UniProt P08684)

>  <result>
inactive

$$$$
>  <molecule>
CC(C)CO/N=C1/C[C@@H](O)[C@@H](O)[C@@H]2[C@@H]3C(=O)N([C@@H](C)c4ccccc4)C(=O)[C@H]3CC[C@H]12

>  <tested_system>
Cytochrome P450 3A4 (Homo sapiens) (UniProt P08684)

>  <result>
-46.1% [at 11.4 µM] (inactive)

$$$$
